molecular target: murine P-gp (Mus musculus); details: AMP-PNP (1 mM); apparent KD
Sequence (P21447 whole entry): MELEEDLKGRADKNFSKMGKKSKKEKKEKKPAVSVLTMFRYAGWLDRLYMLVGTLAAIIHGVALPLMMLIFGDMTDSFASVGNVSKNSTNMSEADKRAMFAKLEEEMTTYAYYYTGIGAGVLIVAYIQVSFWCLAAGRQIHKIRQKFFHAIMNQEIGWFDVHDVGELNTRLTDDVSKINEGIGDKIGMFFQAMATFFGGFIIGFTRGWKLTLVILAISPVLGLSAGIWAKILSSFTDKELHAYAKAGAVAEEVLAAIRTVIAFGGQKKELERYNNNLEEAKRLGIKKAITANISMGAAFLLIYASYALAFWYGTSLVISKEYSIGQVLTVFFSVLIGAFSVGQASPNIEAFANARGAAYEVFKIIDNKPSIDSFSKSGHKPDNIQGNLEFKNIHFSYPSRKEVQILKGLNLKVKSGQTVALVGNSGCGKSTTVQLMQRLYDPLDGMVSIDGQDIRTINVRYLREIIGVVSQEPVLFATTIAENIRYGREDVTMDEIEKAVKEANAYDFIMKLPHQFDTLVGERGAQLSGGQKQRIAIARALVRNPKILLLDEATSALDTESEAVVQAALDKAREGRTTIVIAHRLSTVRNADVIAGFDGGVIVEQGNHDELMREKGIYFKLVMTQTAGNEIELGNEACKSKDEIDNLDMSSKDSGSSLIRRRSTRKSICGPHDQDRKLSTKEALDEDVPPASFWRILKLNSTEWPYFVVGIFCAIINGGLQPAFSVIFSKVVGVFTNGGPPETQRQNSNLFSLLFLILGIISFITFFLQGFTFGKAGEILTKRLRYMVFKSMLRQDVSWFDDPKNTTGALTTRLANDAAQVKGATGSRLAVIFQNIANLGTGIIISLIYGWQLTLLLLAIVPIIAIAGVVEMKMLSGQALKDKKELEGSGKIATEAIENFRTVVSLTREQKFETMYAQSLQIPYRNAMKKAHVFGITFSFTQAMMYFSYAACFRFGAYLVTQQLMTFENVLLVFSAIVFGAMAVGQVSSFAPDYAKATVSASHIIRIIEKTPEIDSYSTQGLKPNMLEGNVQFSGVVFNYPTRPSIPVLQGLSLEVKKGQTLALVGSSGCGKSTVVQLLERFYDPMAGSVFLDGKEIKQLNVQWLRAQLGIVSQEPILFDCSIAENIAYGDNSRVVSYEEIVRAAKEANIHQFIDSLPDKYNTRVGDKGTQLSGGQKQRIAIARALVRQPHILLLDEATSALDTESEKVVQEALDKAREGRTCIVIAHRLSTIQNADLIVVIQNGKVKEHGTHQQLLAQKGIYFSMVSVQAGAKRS
PROPERTY_NAME: pKd
In textbook form, pKd equals minus log to base ten of the concentration in mol/L.

Fill in the blank: the reported pKd of BODIPY vinblastine [BD-vinblastine] is ____.
7.08

====

biological target: murine P-gp (Mus musculus); conditions: apo (control), nucleotide-free; apparent KD, high-affinity site
PROPERTY_NAME: Kd (nM)
Express the result in nM but write the number alone.

Fill in the blank: the reported Kd of BODIPY vinblastine [BD-vinblastine] is ____.
42

====

target: murine P-gp (Mus musculus); conditions: ATP and Vi (1 mM ATP, 240 μM Vi), vanadate-trapped; apparent KD
PROPERTY_NAME: Kd (nM)
Express the result in nM but write the number alone.

Fill in the blank: the reported Kd of BODIPY vinblastine [BD-vinblastine] is ____.
290
